- tested-target: interaction between the KRS protein and the laminin receptor (LR) (Homo sapiens)
- Construct: expressed in transfected cells; host or cells: yeast EGY/SH cells
- Sequence (Q15046 whole entry): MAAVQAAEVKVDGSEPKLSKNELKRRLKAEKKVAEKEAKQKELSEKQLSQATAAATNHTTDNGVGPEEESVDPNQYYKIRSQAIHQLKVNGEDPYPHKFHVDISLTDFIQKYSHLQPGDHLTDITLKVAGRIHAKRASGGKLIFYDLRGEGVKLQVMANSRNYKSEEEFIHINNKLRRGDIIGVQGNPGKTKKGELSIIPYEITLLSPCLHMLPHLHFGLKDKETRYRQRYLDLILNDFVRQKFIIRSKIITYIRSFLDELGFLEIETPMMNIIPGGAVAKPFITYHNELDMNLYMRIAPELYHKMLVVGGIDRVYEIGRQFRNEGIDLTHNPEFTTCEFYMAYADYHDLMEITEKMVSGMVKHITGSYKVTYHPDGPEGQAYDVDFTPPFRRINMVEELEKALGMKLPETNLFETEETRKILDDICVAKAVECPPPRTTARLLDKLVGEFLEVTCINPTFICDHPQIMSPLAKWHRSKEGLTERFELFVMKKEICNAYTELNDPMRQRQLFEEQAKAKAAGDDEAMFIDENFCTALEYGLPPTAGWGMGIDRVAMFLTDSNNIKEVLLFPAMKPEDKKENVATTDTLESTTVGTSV
- procedure-details: Yeast Two Hybrid inhibition of the interaction between the KRS protein and the laminin receptor (LR)
- Assay type: cell-based
- measurement-parameters: 1 μL of 20 mM DMSO solution per 200 μL culture; 30° C., 6 days; absorbance 540 nm; non-treated control = 100%
Binary call on Yeast cell proliferation rates KRS-LR (%): YES from 30% upward, NO beneath that.

# check: Yeast cell proliferation rates KRS-LR (%) of CCOc1ccc2c(c1)sc(=NC(=O)c1ccc(C)cc1)n2C(CC)C(=O)O (centres unmarked) is greater than or equal to 30%
YES

# check: Yeast cell proliferation rates KRS-LR (%) of Cc1ccc(C(=O)N=c2sc3ccc(F)cc3n2C(C)C(=O)O)cc1 (centres unmarked) is greater than or equal to 30%
NO

# check: Yeast cell proliferation rates KRS-LR (%) of CCC(C(=O)O)n1c(=NC(=O)c2ccc(C)cc2)sc2c(F)c(F)ccc21 (centres unmarked) is greater than or equal to 30%
NO

# check: Yeast cell proliferation rates KRS-LR (%) of CCC(C(=O)O)n1c(=NC(=O)c2cccc(Cl)c2)sc2ccc(Cl)cc21 (centres unmarked) is greater than or equal to 30%
YES

# check: Yeast cell proliferation rates KRS-LR (%) of CC(C(=O)O)n1c(=NC(=O)c2cccc(C(F)(F)F)c2)sc2ccc(F)cc21 (centres unmarked) is greater than or equal to 30%
NO

# check: Yeast cell proliferation rates KRS-LR (%) of CCC(C(=O)O)n1c2c(sc1=NC(=O)c1cccc(Cl)c1)CCCC2 (centres unmarked) is greater than or equal to 30%
NO
